assay: supercomplex reporter luminescence per Hoechst cell count – Hoechst nuclei count (AID 1645838); conditions: Cells, luminescence/Hoechst cell count ratio, library stock concentration (final well concentration not given) 2 mM;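 note: control cybrid cells; higher means more mitochondrial supercomplex formation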
The whole screen tested about 2,000 compounds, of which about 100 (5%) were called active. Cut-off read from the data, not from the text of the source: active = z-score above about 2; inactive = the rest. What follows is part of a selection rich in actives, with near analogues and random picks from the rest.
Outcome field: choose from y = active, n = inactive

CC(C)OC(=O)CCCC=CCC1C(O)CC(O)C1C=CC(F)(F)COc1ccccc1 (stereo not given) | n
Cc1ccc(-c2ccc3c(c2)C=C(C(=O)Nc2ccc(C[N+](C)(C)C4CCOCC4)cc2)CCC3)cc1 | n
CC(C)C1C(=O)NC(CCCN=C(N)N)C(=O)NCC(=O)NC(CC(=O)O)C(=O)NC(Cc2ccccc2)C(=O)N1C (stereo not given) | n
Nc1nc(OC(c2ccc(-c3cccc(F)c3)cc2)C(F)(F)F)cc(-c2ccc(CC(N)C(=O)O)cc2)n1 (stereo not given) | n
COCCOc1ccc2c(c1)ncn2-c1ccc2cccc(N3CCC(N)CC3)c2n1 | y

### Prompt Short answer needed: outcome of this test for "C#Cc1cccc(Nc2ncnc3cc4c(cc23)OCCOCCOCCO4)c1" ?
### Response n

### Prompt // return assay outcome for COc1ccc(C2(O)CCC(N3CCC(NC(=O)CNC(=O)c4cccc(C(F)(F)F)c4)C3)CC2)cn1 (stereo not given)
### Response n

### Prompt What outcome does the record of this test show for NC(N)=NCCCC(NC(=O)COCC(c1ccccc1)c1ccccc1)C(=O)O (stereo not given) ?
### Response n

### Prompt Record lookup: outcome of this test for "C#Cc1cccc(Nc2ncnc3cc(OCCOC)c(OCCOC)cc23)c1" ?
### Response n

### Prompt Hi team, can someone confirm the assay call for "Cn1cc(C=C2C(=O)Nc3cccnc32)c2ccccc21" ?
### Response n
